ASSAY TEXT: Cytotoxicity against human HeLa cells assessed as growth inhibition by MTT assay
Type: cell-based
METRIC: GI50 (µg/mL)
Numbers only, in µg/mL.

COc1cc(-c2nc(SCCCn3cnc4sc5c(c4c3=O)CCCC5)[nH]c(=O)c2C#N)cc(OC)c1OC | 55.7
COc1cc(-c2nc(SCCCn3cnc4sc5c(c4c3=O)CCCC5)n(CCCn3cnc4sc5c(c4c3=O)CCCC5)c(=O)c2C#N)cc(OC)c1OC | 89.6
COc1cc(-c2nc(SCCCn3cnc4sc5c(c4c3=O)CCCC5)n(Cc3ccccc3)c(=O)c2C#N)cc(OC)c1OC | 72.1
CCCc1cc2c(=O)n(CCCSc3nc(-c4cc(OC)c(OC)c(OC)c4)c(C#N)c(=O)[nH]3)cnc2s1 | 52.5
C#CCn1c(SCCCn2cnc3sc4c(c3c2=O)CCCC4)nc(-c2cc(OC)c(OC)c(OC)c2)c(C#N)c1=O | 66.3
CCCCCCCc1cc2c(=O)n(CCSc3nc(-c4cc(OC)c(OC)c(OC)c4)c(C#N)c(=O)[nH]3)cnc2s1 | 75.4

Give the measured GI50 of COc1cc(-c2nc(SCCCn3cnc4sc5c(c4c3=O)CCCC5)n(S(=O)(=O)c3ccc(C)cc3)c(=O)c2C#N)cc(OC)c1OC . 64.2
